Data export: AC50 values recorded with Melanocortin receptor 4 (Homo sapiens, UniProt P32245).
Sequence (P32245 whole entry): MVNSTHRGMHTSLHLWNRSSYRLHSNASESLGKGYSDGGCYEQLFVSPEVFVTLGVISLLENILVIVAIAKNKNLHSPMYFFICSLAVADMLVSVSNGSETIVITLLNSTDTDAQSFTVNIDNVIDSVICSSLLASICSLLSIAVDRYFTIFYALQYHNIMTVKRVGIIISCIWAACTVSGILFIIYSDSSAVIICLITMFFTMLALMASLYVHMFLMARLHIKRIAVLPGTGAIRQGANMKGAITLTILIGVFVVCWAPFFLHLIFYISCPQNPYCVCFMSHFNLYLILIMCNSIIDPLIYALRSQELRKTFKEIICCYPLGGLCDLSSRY
measure: AC50

> print(dat)
                                    molecule      val
 1             NC(=O)c1cnccn1 [PYRAZINAMIDE]  10.2 µM
 2  CC(N)Cc1ccccc1 (stereo unspecified) [AMPHETAMINE]  > 30 µM
 3  CN1C(=O)CC(=O)N(c2ccccc2)c2cc(Cl)ccc21 [CLOBAZAM]  > 10 µM
 4    C#CCN(C)[C@H](C)Cc1ccccc1 [SELEGILINE]  > 10 µM
 5  NC(N)=Nc1nc(CSCCC(N)=NS(N)(=O)=O)cs1 [FAMOTIDINE]  > 30 µM
 6        CC1=CC(=O)c2ccccc2C1=O [MENADIONE]  > 10 µM
 7  O=C(CCCCCCC(=O)Nc1ccccc1)NO [VORINOSTAT]  > 30 µM
 8  O=C(O)CCn1c2c(c3ccccc31)C[C@H](NS(=O)(=O)c1ccc(F)cc1)CC2 [RAMATROBAN]  > 30 µM
 9  NC(=O)C[S+]([O-])C(c1ccccc1)c1ccccc1 (stereo unspecified) [MODAFINIL]  24.1 µM
10  CN1CC[C@]23CCCC[C@H]2[C@H]1Cc1ccc(O)cc13 [LEVORPHANOL]  > 10 µM
11  CC(C)c1c(C(=O)Nc2ccccc2)c(-c2ccccc2)c(-c2ccc(F)cc2)n1CC[C@@H](O)C[C@@H](O)CC(=O)O [ATORVASTATIN]  > 30 µM

---

Target: Thromboxane A2 receptor (Homo sapiens, UniProt P21731); also: assay procedure not described here
Type: functional, cell-based
Recorded AC50 for the following compounds
measure: AC50

> print(dat)
                                   compound      val
1  CC(C)C(=O)Nc1ccc([N+](=O)[O-])c(C(F)(F)F)c1 [FLUTAMIDE]  18.4 µM
2          C[N+](C)(C)CCCCCCCCCC[N+](C)(C)C  > 30 µM
3  CO/N=C(\C(=O)N[C@@H]1C(=O)N2C(C(=O)OCOC(=O)C(C)(C)C)=C(C)CS[C@H]12)c1csc(N)n1  > 30 µM
4  NS(=O)(=O)c1cc2c(cc1Cl)NC(C1CC3C=CC1C3)NS2(=O)=O (stereo not drawn) [CYCLOTHIAZIDE]  > 30 µM
5                         Nc1ccc(C(=O)O)cc1  > 30 µM
6  O=C(NC1CCN(CCCCC2(C(=O)NCC(F)(F)F)c3ccccc3-c3ccccc32)CC1)c1ccccc1-c1ccc(C(F)(F)F)cc1 [LOMITAPIDE]   > 1 µM
7  CCC1C(C)=NN=C(c2ccc(OC)c(OC)c2)c2cc(OC)c(OC)cc21 (stereo not drawn)  > 30 µM
8  CC(=O)OC[C@H]1O[C@@H](n2ccc(=O)[nH]c2=O)[C@H](OC(C)=O)[C@@H]1OC(C)=O [URIDINE TRIACETATE]  > 30 µM

---

Biological target: Thromboxane A2 receptor (Homo sapiens, UniProt P21731); also: assay procedure not described here
Sequence (P21731 whole entry): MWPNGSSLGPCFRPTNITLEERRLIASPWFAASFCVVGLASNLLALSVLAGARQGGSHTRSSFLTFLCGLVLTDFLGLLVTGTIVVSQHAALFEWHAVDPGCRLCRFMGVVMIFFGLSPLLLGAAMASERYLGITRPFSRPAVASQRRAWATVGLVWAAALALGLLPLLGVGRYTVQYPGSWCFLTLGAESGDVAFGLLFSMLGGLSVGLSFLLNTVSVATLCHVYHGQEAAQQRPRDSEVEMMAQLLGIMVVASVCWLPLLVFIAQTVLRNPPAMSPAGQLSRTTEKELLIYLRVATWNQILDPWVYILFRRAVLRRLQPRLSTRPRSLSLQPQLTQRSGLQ
Assay type: functional, cell-based
measure: AC50

> print(dat)
                                        smi      val
1                             Cn1cc[nH]c1=S  > 30 µM
2  CCOC(=O)N[C@@H]1CC[C@@H]2[C@@H](C1)C[C@H]1C(=O)O[C@H](C)[C@H]1[C@H]2/C=C/c1ccc(-c2cccc(F)c2)cn1  > 10 µM
3                       CCOC(=O)c1ccc(O)cc1  > 30 µM
4  C[C@@H]1C[C@H]2[C@@H]3C[C@H](F)C4=CC(=O)C(Cl)=C[C@]4(C)[C@@]3(F)[C@@H](O)C[C@]2(C)[C@@]1(O)C(=O)CO  18.6 µM
5                           Oc1cccc2cccnc12  > 30 µM

---

Molecular target: Progesterone receptor (Homo sapiens, UniProt P06401); also: assay procedure not described here
Sequence (P06401 whole entry): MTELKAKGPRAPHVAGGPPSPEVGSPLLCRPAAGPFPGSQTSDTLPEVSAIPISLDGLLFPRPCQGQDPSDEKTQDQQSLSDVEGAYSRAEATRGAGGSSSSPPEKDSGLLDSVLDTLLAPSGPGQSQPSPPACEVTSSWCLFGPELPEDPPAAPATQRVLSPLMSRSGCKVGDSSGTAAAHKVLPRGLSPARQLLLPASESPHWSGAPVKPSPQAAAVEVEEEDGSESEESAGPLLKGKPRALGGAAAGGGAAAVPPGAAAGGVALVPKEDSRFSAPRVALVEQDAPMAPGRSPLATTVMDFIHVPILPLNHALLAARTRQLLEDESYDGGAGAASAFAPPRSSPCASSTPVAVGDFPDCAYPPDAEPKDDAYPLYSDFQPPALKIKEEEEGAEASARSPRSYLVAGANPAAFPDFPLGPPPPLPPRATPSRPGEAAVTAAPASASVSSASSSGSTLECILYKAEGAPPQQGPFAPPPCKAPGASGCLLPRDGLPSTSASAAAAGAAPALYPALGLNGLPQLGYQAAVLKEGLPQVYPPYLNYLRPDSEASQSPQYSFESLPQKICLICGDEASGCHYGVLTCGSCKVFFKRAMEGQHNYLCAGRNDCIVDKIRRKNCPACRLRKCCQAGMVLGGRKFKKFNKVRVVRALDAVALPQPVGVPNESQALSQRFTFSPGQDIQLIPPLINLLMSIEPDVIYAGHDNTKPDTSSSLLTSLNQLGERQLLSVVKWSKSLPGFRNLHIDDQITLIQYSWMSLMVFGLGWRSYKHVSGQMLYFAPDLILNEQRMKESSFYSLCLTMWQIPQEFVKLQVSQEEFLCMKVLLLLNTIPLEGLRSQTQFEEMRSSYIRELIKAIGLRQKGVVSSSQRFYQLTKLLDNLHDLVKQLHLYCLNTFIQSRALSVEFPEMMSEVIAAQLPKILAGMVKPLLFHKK
measure: AC50 (µM)

compound	qual	val
O=C(c1ccc(F)c(F)c1Nc1ccc(I)cc1F)N1CC(O)([C@@H]2CCCCN2)C1	>	30
CCO[C@@H](Cc1ccc(OCCn2c(C)ccc2-c2ccc(SC)cc2)cc1)C(=O)O	=	8.57
CN1CCCC(CN2c3ccccc3Sc3ccccc32)C1 (stereo not given)	>	30
C[C@@H]1C[C@H]2[C@@H]3C[C@H](F)C4=CC(=O)C=C[C@]4(C)[C@@]3(F)[C@@H](O)C[C@]2(C)[C@@]1(O)C(=O)COC(=O)C(C)(C)C [FLUMETHASONE PIVALATE]	=	5.85
COc1cc(Nc2c(C#N)cnc3cc(OCCCN4CCN(C)CC4)c(OC)cc23)c(Cl)cc1Cl	=	7.75

---

Molecular target: cGMP-inhibited 3',5'-cyclic phosphodiesterase 3A (Homo sapiens); also: assay procedure not described here
Sequence (Q14432 whole entry): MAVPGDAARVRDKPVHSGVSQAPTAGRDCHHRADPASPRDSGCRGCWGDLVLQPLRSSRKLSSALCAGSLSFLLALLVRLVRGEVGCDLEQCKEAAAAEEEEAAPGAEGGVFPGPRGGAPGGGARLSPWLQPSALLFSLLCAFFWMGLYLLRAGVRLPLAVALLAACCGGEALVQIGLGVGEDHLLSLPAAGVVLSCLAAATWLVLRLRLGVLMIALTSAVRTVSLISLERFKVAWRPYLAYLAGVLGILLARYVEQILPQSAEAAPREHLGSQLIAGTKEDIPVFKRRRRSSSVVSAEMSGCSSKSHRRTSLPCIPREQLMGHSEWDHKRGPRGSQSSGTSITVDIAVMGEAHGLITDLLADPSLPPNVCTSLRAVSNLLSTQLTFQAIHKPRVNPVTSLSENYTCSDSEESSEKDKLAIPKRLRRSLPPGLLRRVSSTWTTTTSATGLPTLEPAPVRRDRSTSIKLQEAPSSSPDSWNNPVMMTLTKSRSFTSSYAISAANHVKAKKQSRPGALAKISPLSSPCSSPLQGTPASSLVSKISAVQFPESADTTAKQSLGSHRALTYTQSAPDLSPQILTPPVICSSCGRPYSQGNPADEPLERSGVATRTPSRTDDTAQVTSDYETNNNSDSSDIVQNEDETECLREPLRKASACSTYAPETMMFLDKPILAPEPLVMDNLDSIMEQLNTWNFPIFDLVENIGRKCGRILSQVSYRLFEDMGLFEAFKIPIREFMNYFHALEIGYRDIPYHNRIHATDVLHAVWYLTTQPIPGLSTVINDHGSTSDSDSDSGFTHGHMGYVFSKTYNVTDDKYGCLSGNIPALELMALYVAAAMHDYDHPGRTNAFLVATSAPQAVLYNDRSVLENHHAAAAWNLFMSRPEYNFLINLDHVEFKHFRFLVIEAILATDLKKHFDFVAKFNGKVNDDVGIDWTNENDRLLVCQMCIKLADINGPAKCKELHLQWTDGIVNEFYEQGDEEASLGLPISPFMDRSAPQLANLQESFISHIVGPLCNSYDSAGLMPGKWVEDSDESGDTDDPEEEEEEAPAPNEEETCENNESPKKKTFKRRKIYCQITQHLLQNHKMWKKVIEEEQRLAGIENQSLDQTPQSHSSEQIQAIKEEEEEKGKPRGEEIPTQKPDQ
Assay type: functional
measure: AC50

> print(dat)
                                    compound      val
 1  O=C(COc1ccc(Cl)cc1)N1CCN(Cc2ccc3c(c2)OCO3)CC1 [FIPEXIDE]  > 30 µM
 2  CC(C)=CCC1C(=O)N(c2ccccc2)N(c2ccccc2)C1=O [FEPRAZONE]  > 30 µM
 3  CC(=O)OC[C@H]1O[C@@H](n2ccc(=O)[nH]c2=O)[C@H](OC(C)=O)[C@@H]1OC(C)=O [URIDINE TRIACETATE]  > 30 µM
 4             NC(=O)c1cnccn1 [PYRAZINAMIDE]  > 30 µM
 5  O=[N+]([O-])c1cncn1CCN1CCOCC1 [NIMORAZOLE]  > 30 µM
 6  C[C@@H]1C[C@H]2[C@@H]3C[C@H](F)C4=CC(=O)C(Cl)=C[C@]4(C)[C@@]3(F)[C@@H](O)C[C@]2(C)[C@@]1(O)C(=O)CO [HALOMETASONE]  > 30 µM
 7  CS(=O)(=O)c1ccc([C@@H](O)[C@@H](CO)NC(=O)C(Cl)Cl)cc1 [THIAMPHENICOL]  > 30 µM
 8  CS(=O)(=O)Nc1cc2occ(NC=O)c(=O)c2cc1Oc1ccccc1 [IGURATIMOD]  > 30 µM
 9  OCCN1CCN(CCCN2c3ccccc3C=Cc3ccccc32)CC1 [OPIPRAMOL]  > 30 µM
10  C#C[C@]1(O)CC[C@H]2[C@@H]3CCc4cc(O)ccc4[C@H]3CC[C@@]21C [ETHINYL ESTRADIOL]  > 30 µM
11  Nc1nc(-n2cc(C(=O)O)c(=O)c3cc(F)c(N4CC(O)C4)c(Cl)c32)c(F)cc1F [DELAFLOXACIN]  > 30 µM
12  Cc1nc(-c2ccc(OCC(C)C)c(C#N)c2)sc1C(=O)O [FEBUXOSTAT]  > 30 µM
13  CCC1(c2cccc(O)c2)CCCCN(C)C1 (stereo not drawn) [MEPTAZINOL]  > 30 µM
14  O=C1CCC(N2C(=O)c3ccccc3C2=O)C(=O)N1 (stereo not drawn) [THALIDOMIDE]  > 30 µM
15  O=C1[C@H](CC[C@H](O)c2ccc(F)cc2)[C@@H](c2ccc(O)cc2)N1c1ccc(F)cc1 [EZETIMIBE]  > 30 µM
16  C#C[C@]1(O)CC[C@H]2[C@@H]3CCC4=CC(=O)CC[C@@H]4[C@H]3CC[C@@]21CC [LEVONORGESTREL]  > 30 µM
17           Cc1ccc(O)c2ncccc12 [TILIQUINOL]  > 30 µM
18  COc1ccc2c(c1)OC(C)(C)C(c1ccccc1)C2c1ccc(OCCN2CCCC2)cc1 (stereo not drawn) [ORMELOXIFENE]  > 30 µM

Hey, just so you know, these numbers are from ChEMBL document CHEMBL5291721.
